- Measured Target: T1, cyno pro-myostatin (cynomolgus monkey, Biotinylated for capture in the SPR assay (site not stated). The native form is a disulfide-linked homodimer, partly furin-cleaved; one chain is given.)
- T1 construct: also called proGDF8 (cynomolgus); cynomolgus monkey pro-myostatin
- Experiment Summary: SPR Biacore 8K, biotin-antigen captured
Use 0.0009 s⁻¹ as the dividing line for koff, with the line itself on the Yes side and lower values as No.

- Binder: "Ab129 (antibody, human IgG4 S228P, kappa, V domains shown) VH: QVQLVQSGAEVKKPGASVKVSCKVSGFNYPRSAIHWVRQAPGKGLEWMGGINPSGEATIYAQKFQGRVTMTEDTSTDTAYMELSSLKSEDTAVYYCARDSSPQWLVTAGVYFYGMDVWGQGTTVTVSS VL: DIQMTQSPSSVSASVGDRVTITCRASQSISNWLAWYQQKPGKAPKLLIYHASTLQSGVPSRFSGSGSGTDFTLTISSLQPEDFANYYCQQYSSTPWTFGGGTKVEIKR"
  Class Name: "No"
- Binder: "Ab114 (antibody, human IgG4 S228P, kappa, V domains shown) VH: QVQLVQSGAEVKKPGASVKVSCKVSGGTFRSYTIHWVRQAPGKGLEWMGGMNPSSGHTIYAQKFQGRVTMTEDTSTDTAYMELSSLKSEDTAVYYCARGLDYGEGYYYYGMDVWGQGTTVTVSS VL: DIQMTQSPSSVSASVGDRVTITCRASQGISESLAWYQQKPGKAPKLLIYSASSLESGVPSRFSGSGSGTDFTLTISSLQPEDFANYYCQQGYSSPPYTFGGGTKVEIKR"
  Class Name: "Yes"
- Binder: "Ab123 (antibody, human IgG4 S228P, kappa, V domains shown) VH: EVQLVESGGGLVQPGGSLRLSCAASGFTFSKYDMSWVRQAPGKGLELVASISSSGGTRYYPDSVKGRFTISRDNAKNSLYLQMNSLRAEDTAVYYCAKDLWVASPGYGMDVWGQGTTVTVSS VL: DIVMTQSPLSLPVTPGEPASISCRSSQSLLHSSGHNYLHWYLQKPGQSPQLLIYLGSIRAPGVPDRFSGSGSGTDFTLKISRVEAEDVGVYYCMQALLNPPTFGGGTKVEIKR"
  Class Name: "No"
- Binder: "Ab127 (antibody, human IgG4 S228P, kappa, V domains shown) VH: EVQLVESGGGLVQPGGSLRLSCTASGFTFGSYPMDWVRQAPGKGLEWVSYISGRGDVTYYADSVKGRFTISRDNAKNTLYLQMNSLRAEDTAVYYCAKVQSPSELLWFGELLPVDYWGQGTLVTVSS VL: DIQMTQSPSSLSASVGDRVTITCQASQVIKTWLNWYQQKPGKAPKLLIYDASNLQRGVPSRFSGSGSGTDFTFTISSLQPEDIATYYCQQSASTPITFGGGTKVEIKR"
  Class Name: "No"
- Binder: "Ab115 (antibody, human IgG4 S228P, kappa, V domains shown) VH: QVQLVQSGAEVKKPGASVKVSCKVSGYAFTNYNIHWVRQAPGKGLEWMGGINPRTGGTIYAQKFQGRVTMTEDTSTDTAYMELSSLKSEDTAVYYCAKDIYTGVAVAGSGMDYWGQGTLVTVSS VL: DIQMTQSPSSVSASVGDRVTITCRASQGISTHLAWYQQKPGKAPKLLIYGASNLESGVPSRFSGSGSGTDFTLTISSLQPEDFANYYCQQANSFPWTFGGGTKVEIKR"
  Class Name: "Yes"
